Measured values drawn from patent US12077503B2 for this set.

System: barnyardgrass (Echinochloa crus-galli)
assay-info: Test C preemergence
Type: in vivo
applied-conditions: 31 g ai/ha, 0 is no effect, 100 is complete control
reported-property: Plant response rating (scale of 0 to 100), Barnyardgrass
Field format: numeric only.

Cc1ccc(C2CN(C)C(=O)C2C(=O)Nc2ccccc2F)cc1F (stereo not shown) ... 90
CN1CC(c2ccc(F)c(F)c2)C(C(=O)Nc2ccccc2S(C)(=O)=O)C1=O (stereo not shown) ... 80

Challenge: # get_value(readout='Plant response rating (scale of 0 to 100), Barnyardgrass', item= CN1CC(c2ccc(F)c(C(F)(F)F)c2)C(C(=O)Nc2ccccc2S(C)(=O)=O)C1=O (stereo not shown) )
Response given: 85

Challenge: # get_value(readout='Plant response rating (scale of 0 to 100), Barnyardgrass', item= CN1CC(c2cc(F)cc(F)c2)C(C(=O)Nc2cccc(F)c2F)C1=O (stereo not shown) )
Response given: 90

---

System: corn (Zea mays)
assay-info: Test A postemergence
Type: in vivo
applied-conditions: Zea mays, post-emergence, 240 h, 125 g ai/ha, postemergence; visual injury on 0 to 100 scale (0 no effect, 100 complete control), approx. 10 d; read-out: Corn plant response rating
Lab note: cut-off is 20%. Strictly less in plant injury at 125 g/ha is y. Exactly 20% or more is n.

Study these solved cases before continuing.
CN1C[C@H](c2cscn2)[C@@H](C(=O)Nc2ccccc2F)C1=O ... y
CSc1ccccc1NC(=O)[C@H]1C(=O)NC[C@@H]1c1cc(F)c(F)c(F)c1 ... y
CN1C[C@H](c2csc3c2CCCC3)[C@@H](C(=O)Nc2ccc(F)c(F)c2F)C1=O ... y
CSc1ccccc1NC(=O)[C@H]1C(=O)N(C)C[C@@H]1c1ccc(C(F)(F)F)cn1 ... y
C=C(C)c1cccc([C@H]2CN(C)C(=O)[C@@H]2C(=O)Nc2cccc(F)c2C)c1 ... n
COc1cccc([C@H]2CN(C)C(=O)[C@@H]2C(=O)Nc2cccc(F)c2F)c1F ... y

Challenge: Strictly below 20% in plant injury at 125 g/ha? Cc1ccncc1NC(=O)[C@H]1C(=O)N(C)C[C@@H]1c1ccc(C(F)(F)F)cc1
Response given: y

Challenge: Strictly below 20% in plant injury at 125 g/ha? C=C(C)c1ccc([C@H]2CN(C)C(=O)[C@@H]2C(=O)Nc2cccc(F)c2F)cc1
Response given: y

Challenge: Strictly below 20% in plant injury at 125 g/ha? CN1C[C@H](c2ccc3c(c2)OCO3)[C@@H](C(=O)Nc2cccc(F)c2F)C1=O
Response given: n

Challenge: Strictly below 20% in plant injury at 125 g/ha? Cc1cc([C@H]2CNC(=O)[C@@H]2C(=O)Nc2ccccc2F)ccc1C(F)(F)F
Response given: n

Challenge: Strictly below 20% in plant injury at 125 g/ha? CN1C[C@H](c2csc3c2CCOC3)[C@@H](C(=O)Nc2ccc(F)c(F)c2F)C1=O
Response given: y

---

System: ivy-leaved morning glory (Ipomoea hederacea)
assay-info: Test G Pre-Emergence Protocol
Assay type: in vivo
applied-conditions: Ipomoea, pre-emergence, 312 h, 62.5 g ai/ha, evaluated after 13 days, 100=total damage to plant, 0=no damage to plant, read-out: plant damage rating, Morningglory, Ivy-leaved
From the text: Seeds of corn (Zea mays), giant foxtail (Setaria faberi), barnyardgrass (Echinochloa crus-galli), ivy-leaved morning glory (Ipomoea hederacea), redroot pigweed (Amaranthus retroflexus) and velvetleaf (Abutilon theophrasti) were sown in standard soil in pots. […]
Documented pest or weed control at 62.5 g/ha across a set of compounds
The figure you give is taken to be in %; do not add the unit.

Challenge: # get_value(readout='pest or weed control at 62.5 g/ha', item= Cc1ccc(NC(=O)[C@H]2C(=O)N(C)C[C@@H]2c2ccc(C(F)(F)F)cc2)c(C)c1C (racemic) )
Response given: 0

---

System: ivy-leaved morning glory (Ipomoea hederacea)
assay-info: Test G Post-Emergence Protocol
Type: in vivo
applied-conditions: Ipomoea, post-emergence, 312 h, 62.5 g ai/ha, evaluated after 13 days, 100=total damage to plant, 0=no damage to plant, read-out: Morningglory, Ivy-leaved damage rating
Documented pest or weed control at 62.5 g/ha across a set of molecules
The figure you give is taken to be in %; do not add the unit.

CC(O)c1ccccc1NC(=O)[C@H]1C(=O)N(C)C[C@@H]1c1cccc(C(F)(F)F)c1 (mixture of isomers) ... 60
COc1c(Cl)ccc([C@H]2CN(C)C(=O)[C@@H]2C(=O)Nc2cccc(F)c2F)c1F ... 10
CN1C[C@H](c2cccc(C(F)(F)F)c2)[C@@H](C(=O)Nc2cccc(O)c2F)C1=O (racemic) ... 0

Lab note: next molecule to report on.
Challenge: # get_value(readout='pest or weed control at 62.5 g/ha', item= COc1cc(OC(F)(F)F)cc(C2CN(C)C(=O)C2C(=O)Nc2cccc(F)c2F)c1 (stereo not shown) )
Response given: 60

---

Tested on: velvetleaf (Abutilon theophrasti)
assay-info: Test G Post-Emergence Protocol
Format: in vivo
applied-conditions: Abutilon theophrasti, post-emergence, 312 h, 250 g ai/ha, evaluated after 13 days, read-out: damage to plant, Velvetleaf (100=total damage to plant; 0=no damage to plant)
Documented pest or weed control at 250 g/ha across a set of compounds

The following compounds have reported results that may help.
Cc1nc(NC(=O)[C@@H]2C(=O)N(C)C[C@H]2c2ccc(C(F)(F)F)cc2)ccc1F (racemic) ... 30%
Cc1c(Cl)ccc([C@@H]2CN(C)C(=O)[C@H]2C(=O)Nc2cccc(F)c2F)c1F (racemic) ... 10%
CN1C[C@@H](c2ccc(C(F)(F)F)cc2)[C@H](C(=O)Nc2cccnn2)C1=O (racemic) ... 0%
CN1C[C@@H](c2ccc(C(F)(F)F)cc2)[C@H](C(=O)Nc2nccc(=O)[nH]2)C1=O (racemic) ... 0%
C=CCc1ccc(Cl)cc1NC(=O)[C@H]1C(=O)N(C)C[C@@H]1c1ccc(C(F)(F)F)cc1 (racemic) ... 0%

Challenge: # get_value(readout='pest or weed control at 250 g/ha', item= Cc1c(Br)cccc1NC(=O)[C@@H]1C(=O)N(C)C[C@H]1c1ccc(C(F)(F)F)cc1 (racemic) )
Response given: 0%

Challenge: # get_value(readout='pest or weed control at 250 g/ha', item= CN1C[C@@H](c2ccc(C(F)(F)F)nc2)[C@H](C(=O)Nc2cccc(F)n2)C1=O (racemic) )
Response given: 0%

---

Test system: barnyardgrass (Echinochloa crus-galli)
assay-info: Test A postemergence
Assay type: in vivo
applied-conditions: Echinochloa crus-galli, post-emergence, 240 h, 125 g ai/ha, postemergence, visual injury rating after approximately 10 d; read-out: Barnyardgrass plant response rating (0 to 100 scale, 0 no effect, 100 complete control)
Documented pest or weed control at 125 g/ha across a set of compounds
The figure you give is taken to be in %; do not add the unit.

CN1C[C@H](c2cc(F)cc(F)c2)[C@@H](C(=O)Nc2ccc(C(F)(F)F)nc2)C1=O [Compound 870] ... 0
Cc1cc(C)cc([C@H]2CN(C)C(=O)[C@@H]2C(=O)Nc2cccc(F)c2F)c1 [Compound 911] ... 90
Cc1c(F)ccc([C@H]2CNC(=O)[C@@H]2C(=O)Nc2ccccc2S(C)(=O)=O)c1F [Compound 832] ... 70
CN1C[C@H](c2cc(F)c(F)c(F)c2)[C@@H](C(=O)Nc2ccccc2S(C)(=O)=O)C1=O [Compound 880] ... 90

Challenge: # get_value(readout='pest or weed control at 125 g/ha', item= CN1C[C@H](c2cccc(COC(F)F)c2)[C@@H](C(=O)Nc2cccc(F)c2F)C1=O [Compound 873] )
Response given: 90

Challenge: # get_value(readout='pest or weed control at 125 g/ha', item= CN1C[C@H](c2cccc(C3CC3)c2)[C@@H](C(=O)Nc2cccc(F)c2F)C1=O [Compound 816] )
Response given: 90

Challenge: # get_value(readout='pest or weed control at 125 g/ha', item= O=C1NC[C@H](c2cc(F)c(C(F)(F)F)c(F)c2)[C@H]1C(=O)Nc1ccccc1F [Compound 837] )
Response given: 90

Challenge: # get_value(readout='pest or weed control at 125 g/ha', item= CCc1cc([C@H]2CNC(=O)[C@@H]2C(=O)Nc2ccccc2F)cs1 [Compound 913] )
Response given: 90

Challenge: # get_value(readout='pest or weed control at 125 g/ha', item= CN1C[C@H](c2cc(F)c(F)c(F)c2)[C@@H](C(=O)Nc2cccc(F)c2F)C1=O [Compound 879] )
Response given: 100

---

Tested on: ivy-leaved morning glory (Ipomoea hederacea)
assay-info: Test G Post-Emergence Protocol
Format: in vivo
applied-conditions: Ipomoea, post-emergence, 312 h, 62.5 g ai/ha, evaluated after 13 days, 100=total damage to plant, 0=no damage to plant, read-out: Morningglory, Ivy-leaved damage rating
reported-property: pest or weed control at 62.5 g/ha
Dear colleague, please send the value followed by its unit.

CN1C[C@@H](c2cc(Br)cc(Oc3ccccc3)c2)[C@H](C(=O)Nc2cccc(F)c2F)C1=O (racemic) ... 0%
CSc1ccncc1NC(=O)[C@H]1C(=O)N(C)C[C@@H]1c1ccc(C(F)(F)F)cc1 (racemic) ... 0%
CN1C[C@H](c2ccc(C(F)(F)F)cc2)[C@@H](C(=O)Nc2cccc(F)c2S(C)(=O)=O)C1=O (racemic) ... 10%

Lab note: next compound to report on.
Challenge: # get_value(readout='pest or weed control at 62.5 g/ha', item= CN1C[C@H](c2ccc(C(F)(F)F)cc2)[C@@H](C(=O)Nc2cccc3c2C(=O)OC3)C1=O (racemic) )
Response given: 20%
